The reader will find reported protein stability index values listed item by item below.
B1: PKD2L1 (parent)
chain: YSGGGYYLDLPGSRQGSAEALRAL

Variants of: B1
ASSAY REMARKS: protein stability index of a GFP-peptide fusion (GPS, HEK-293T) (PSI 1-6); higher = more stable;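 further: lentivirally expressed fusions sorted by FACS into six bins by GFP to DsRed ratio, PSI derived from sequencing read proportions per bin multiplied by bin number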
TEST PARAMETERS: c terminus: a fixed tail appended

MACROMOLECULE SEQUENCE | protein stability index
YSGGGYYLDLPGSIQGSAEALRAL [R14I] | 2.55
YSGGGYYLDLMGSRQGSAEALRAL [P11M] | 2.68
YSGGGYYLDLPGSRQGSLEALRAL [A18L] | 2.12
YSLGGYYLDLPGSRQGSAEALRAL [G3L] | 2.87
YSGGGYYLDLPGSRQGSACALRAL [E19C] | 2.27
YSGGGYYCDLPGSRQGSAEALRAL [L8C] | 1.69
YSGGGYYLDLPGSRQGSAEALRAF [L24F] | 1.99
YSGGGYYLDLPDSRQGSAEALRAL [G12D] | 2.09
YSGGGYYLDLPGSRQGSAEALRAK [L24K] | 2.91
YSGGGYYLDLPGSRQGSAEALRAC [L24C] | 1.62
YSGGGYYFDLPGSRQGSAEALRAL [L8F] | 2.66
NSGGGYYLDLPGSRQGSAEALRAL [Y1N] | 3.58
YSGGGYYLDLPGSRQGSYEALRAL [A18Y] | 1.75
YSGGGYYLDLPGLRQGSAEALRAL [S13L] | 1.5
YSGGGMYLDLPGSRQGSAEALRAL [Y6M] | 2.16
YSGGGYYLDLPGSRDGSAEALRAL [Q15D] | 1.98
YSGGGYYLLLPGSRQGSAEALRAL [D9L] | 4.93
YSWGGYYLDLPGSRQGSAEALRAL [G3W] | 2.09
YSGGGYYIDLPGSRQGSAEALRAL [L8I] | 2.77
YSGGGYYLDFPGSRQGSAEALRAL [L10F] | 2.09
YSGGGYYLDLPGSRQGSAEAWRAL [L21W] | 1.29
YSGGGYYYDLPGSRQGSAEALRAL [L8Y] | 2.03
